assayedTarget: urokinase (Homo sapiens, UniProt P00749)
Construct: human high molecular weight urokinase; purchased American Diagnostica, Greenwich, Conn
experimentalProtocol: Urokinase Indirect (Plasminogen-Linked) Assay
Assay type: biochemical
setupConditions: Table 3 column 4, simple number, unit inferred; read-out: uPA Indirect (plasminogen-linked) IC50
Counter-ions that a name gives are not always drawn.
reportedProperty: IC50 (nM)
Output spec: scalar in nM, unitless text.

Task: Reported IC50, compound CCCCC=Cc1cccc2sc(C(=N)N)cc12 [Compound 29, hydrochloride] : ____
Output: 340

Task: Reported IC50, compound Cl.N=C(N)c1cc2cc(I)ccc2s1 [Compound 104, hydrochloride] : ____
Output: 2400

Task: Reported IC50, compound N=C(N)c1ccc(/C=C/c2ccc3sc(C(=N)N)cc3c2)cc1 [Compound 122, bis-hydrochloride] : ____
Output: 980

Task: Reported IC50, compound Cl.N=C(N)c1cc2ccccc2s1 [Compound 1, hydrochloride] : ____
Output: 4900

Task: Reported IC50, compound N=C(N)c1cc2c(/C=C/c3cccc4sc(C(=N)N)cc34)cccc2s1 [Compound 73, bis-hydrochloride] : ____
Output: 170

Task: Reported IC50, compound CCc1cccc2sc(C(=N)N)cc12.Cl [Compound 7, hydrochloride] : ____
Output: 700

Task: Reported IC50, compound Cl.N=C(N)c1cc2c(-c3ccco3)cccc2s1 [Compound 49, hydrochloride] : ____
Output: 360

Task: Reported IC50, compound C#Cc1cccc2sc(C(=N)N)cc12.Cl [Compound 39, hydrochloride] : ____
Output: 660

Task: Reported IC50, compound Cl.N=C(N)c1cc2c(CO)cccc2s1 [Compound 56, hydrochloride] : ____
Output: 880

----------
assayedTarget: human plasmin (Homo sapiens, UniProt P00747)
Construct: plasmin, the potent general protease produced by cleavage of plasminogen by either urokinase or tPA; purchased American Diagnostica
Sequence (P00747 581-810 limits assumed): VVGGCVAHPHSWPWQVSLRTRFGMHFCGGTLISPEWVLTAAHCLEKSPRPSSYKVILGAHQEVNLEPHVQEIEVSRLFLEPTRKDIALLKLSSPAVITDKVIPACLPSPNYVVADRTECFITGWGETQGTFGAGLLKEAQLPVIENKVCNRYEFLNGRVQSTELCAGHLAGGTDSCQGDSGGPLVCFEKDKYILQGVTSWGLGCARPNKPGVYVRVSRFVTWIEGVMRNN
Sequence (P00747 97-580 limits assumed): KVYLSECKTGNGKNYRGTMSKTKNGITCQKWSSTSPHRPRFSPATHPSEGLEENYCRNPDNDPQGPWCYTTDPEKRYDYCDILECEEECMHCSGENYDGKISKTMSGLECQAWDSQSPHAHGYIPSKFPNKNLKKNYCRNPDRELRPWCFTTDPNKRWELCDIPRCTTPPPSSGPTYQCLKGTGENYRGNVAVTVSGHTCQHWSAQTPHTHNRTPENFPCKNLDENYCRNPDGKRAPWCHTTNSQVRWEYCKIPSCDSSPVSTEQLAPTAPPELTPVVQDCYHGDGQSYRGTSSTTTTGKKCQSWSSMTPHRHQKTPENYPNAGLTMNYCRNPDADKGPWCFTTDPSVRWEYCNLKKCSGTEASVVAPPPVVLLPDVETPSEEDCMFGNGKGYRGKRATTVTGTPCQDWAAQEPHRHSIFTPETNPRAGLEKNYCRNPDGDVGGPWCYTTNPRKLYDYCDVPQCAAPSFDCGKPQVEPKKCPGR
experimentalProtocol: Plasmin Assay
Type: biochemical
setupConditions: read-out: PLASMIN activity observed relative to inhibitor-free controls
Lab note: anything with inhibition at 1000 µM at or over 90% counts as Yes; the rest go in No.

Task: Answer whether inhibition at 1000 µM of Cl.N=C(N)c1cc2cc(I)ccc2s1 [Compound 104, hydrochloride] is greater than or equal to 90%.
Output: Yes

Task: Answer whether inhibition at 1000 µM of Cl.N=C(N)c1cc2c(CO)cccc2s1 [Compound 56, hydrochloride] is greater than or equal to 90%.
Output: No

Task: Answer whether inhibition at 1000 µM of Cl.N=C(N)c1cc2cc(Br)ccc2s1 [Compound 103, hydrochloride] is greater than or equal to 90%.
Output: Yes

Task: Answer whether inhibition at 1000 µM of COc1ccc2sc(C(=N)N)cc2c1Br.Cl [Compound 204, hydrochloride] is greater than or equal to 90%.
Output: No

Task: Answer whether inhibition at 1000 µM of Cl.N=C(N)c1cc2ccccc2s1 [Compound 1, hydrochloride] is greater than or equal to 90%.
Output: No

----------
assayedTarget: human high molecular weight urokinase (Homo sapiens)
Construct: human high molecular weight urokinase; purchased American Diagnostica, Greenwich, Conn
experimentalProtocol: Urokinase Direct Assay
Type: biochemical
setupConditions: read-out: uPA Direct: percentage of residual urokinase activity relative to inhibitor-free controls; heading: uPA Direct: percentage of residual urokinase activity relative to inhibitor-free controls; inhibitor concentration of 1 mM
Counter-ions that a name gives are not always drawn.
reportedProperty: residual urokinase activity at 1000 µM (%)
Output spec: scalar in %, unitless text.

Task: Reported residual urokinase activity at 1000 µM, molecule N=C(N)c1cc2c(F)cc(Br)cc2s1 [Compound 308, hydrochloride] : ____
Output: 14.5

Task: Reported residual urokinase activity at 1000 µM, molecule CCC(/C=C/c1cccc2sc(C(=N)N)cc12)CC [Compound 28, hydrochloride] : ____
Output: 0.46

Task: Reported residual urokinase activity at 1000 µM, molecule N=C(N)c1csc2ccccc12 [Compound 316, hydrochloride] : ____
Output: 80

Task: Reported residual urokinase activity at 1000 µM, molecule N=C(N)c1cc2cc3ccccc3cc2s1 [Compound 313, hydrochloride] : ____
Output: 11

Task: Reported residual urokinase activity at 1000 µM, molecule N=C(N)c1cc2cc(C=O)ccc2s1 [Compound 130, hydrochloride] : ____
Output: 6.8

----------
assayedTarget: urokinase (Homo sapiens, UniProt P00749)
Construct: human high molecular weight urokinase; purchased American Diagnostica, Greenwich, Conn
experimentalProtocol: Urokinase Indirect (Plasminogen-Linked) Assay
Assay type: biochemical
setupConditions: uPA Indirect (plasminogen-linked) IC50, Table 3, unit inferred
reportedProperty: IC50

Task: # get_value(readout= IC50, system= urokinase (Homo sapiens, UniProt P00749)) for C=Cc1ccc2sc(C(=N)N)cc2c1SC.Cl [Compound 201, hydrochloride]
Output: 670 nM

----------
assayedTarget: human plasmin (Homo sapiens)
Construct: plasmin, the potent general protease produced by cleavage of plasminogen by either urokinase or tPA; purchased American Diagnostica
experimentalProtocol: Plasmin Assay
Format: biochemical
setupConditions: ratio with respect to urokinase indirect plasminogen-linked IC50; larger = greater specificity for urokinase
Where a name gives a salt, the structure may show the parent alone.
Kindly state PLM/uPA ratio for each of the entries shown.
I'd appreciate a reply containing only the number, no unit.

Task: # get_value(readout= PLM/uPA ratio, system= human plasmin (Homo sapiens)) for N=C(N)c1ccc(/C=C/c2ccc3sc(C(=N)N)cc3c2)cc1 [Compound 122, bis-hydrochloride]
Output: 367

Task: # get_value(readout= PLM/uPA ratio, system= human plasmin (Homo sapiens)) for C=CCOCc1cc2ccc3sc(C(=N)N)cc3c2s1 [Compound 208, hydrochloride]
Output: 910

Task: # get_value(readout= PLM/uPA ratio, system= human plasmin (Homo sapiens)) for N=C(N)c1cc2c(C=Cc3ccc4c(c3)OCCO4)cccc2s1 [Compound 66, hydrochloride]
Output: 4580

Task: # get_value(readout= PLM/uPA ratio, system= human plasmin (Homo sapiens)) for N=C(N)c1cc2c(/C=C/c3cccc4sc(C(=N)N)cc34)cccc2s1 [Compound 73, bis-hydrochloride]
Output: 147

Task: # get_value(readout= PLM/uPA ratio, system= human plasmin (Homo sapiens)) for CCc1cccc2sc(C(=N)N)cc12.Cl [Compound 7]
Output: 610

Task: # get_value(readout= PLM/uPA ratio, system= human plasmin (Homo sapiens)) for Cl.N=C(N)c1cc2cc(-c3ccco3)ccc2s1 [Compound 126]
Output: 763

Task: # get_value(readout= PLM/uPA ratio, system= human plasmin (Homo sapiens)) for C=Cc1ccc2sc(C(=N)N)cc2c1SC.Cl [Compound 201]
Output: 65

Task: # get_value(readout= PLM/uPA ratio, system= human plasmin (Homo sapiens)) for C=CCc1cccc2sc(C(=N)N)cc12.Cl [Compound 19]
Output: 1120

Task: # get_value(readout= PLM/uPA ratio, system= human plasmin (Homo sapiens)) for CCCCc1cccc2sc(C(=N)N)cc12.Cl [Compound 10]
Output: 907

Task: # get_value(readout= PLM/uPA ratio, system= human plasmin (Homo sapiens)) for Cl.N=C(N)c1cc2c(-c3cc4ccccc4o3)cccc2s1 [Compound 51]
Output: 1330

Task: # get_value(readout= PLM/uPA ratio, system= human plasmin (Homo sapiens)) for C=Cc1cccc2sc(C(=N)N)cc12.Cl [Compound 17]
Output: 42

Task: # get_value(readout= PLM/uPA ratio, system= human plasmin (Homo sapiens)) for C=Cc1ccc2sc(C(=N)N)cc2c1.Cl [Compound 114]
Output: 180

Task: # get_value(readout= PLM/uPA ratio, system= human plasmin (Homo sapiens)) for N=C(N)c1cc2c(C=Cc3ccccc3)cccc2s1 [Compound 63, hydrochloride]
Output: 1250

Task: # get_value(readout= PLM/uPA ratio, system= human plasmin (Homo sapiens)) for CCC/C=C/c1cccc2sc(C(=N)N)cc12.Cl [Compound 25]
Output: 1471

Task: # get_value(readout= PLM/uPA ratio, system= human plasmin (Homo sapiens)) for C#Cc1cccc2sc(C(=N)N)cc12.Cl [Compound 39]
Output: 661

Task: # get_value(readout= PLM/uPA ratio, system= human plasmin (Homo sapiens)) for Cl.N=C(N)c1cc2c(-c3ccco3)cccc2s1 [Compound 49]
Output: 1000

Task: # get_value(readout= PLM/uPA ratio, system= human plasmin (Homo sapiens)) for CC(C)C=Cc1cccc2sc(C(=N)N)cc12 [Compound 22, hydrochloride]
Output: 2218

Task: # get_value(readout= PLM/uPA ratio, system= human plasmin (Homo sapiens)) for Cl.N=C(N)c1cc2c(-c3ccccc3)cccc2s1 [Compound 44]
Output: 800

Task: # get_value(readout= PLM/uPA ratio, system= human plasmin (Homo sapiens)) for CC(C)CCc1cccc2sc(C(=N)N)cc12.Cl [Compound 12]
Output: 847

Task: # get_value(readout= PLM/uPA ratio, system= human plasmin (Homo sapiens)) for Cl.N=C(N)c1cc2c(C#Cc3ccco3)cccc2s1 [Compound 75]
Output: 1694

Task: # get_value(readout= PLM/uPA ratio, system= human plasmin (Homo sapiens)) for CSc1cccc2sc(C(=N)N)cc12.Cl [Compound 58]
Output: 954

Task: # get_value(readout= PLM/uPA ratio, system= human plasmin (Homo sapiens)) for CC(C)/C=C/c1cccc2sc(C(=N)N)cc12.Cl [Compound 23]
Output: 4838

Task: # get_value(readout= PLM/uPA ratio, system= human plasmin (Homo sapiens)) for CCCCC=Cc1cccc2sc(C(=N)N)cc12 [Compound 29, hydrochloride]
Output: 718

Task: # get_value(readout= PLM/uPA ratio, system= human plasmin (Homo sapiens)) for N=C(N)c1ccc(-c2ccc(-c3cccc4sc(C(=N)N)cc34)o2)cc1 [Compound 53, bis-hydrochloride]
Output: 511

Task: # get_value(readout= PLM/uPA ratio, system= human plasmin (Homo sapiens)) for Cl.N=C(N)c1cc2c(-c3cccs3)cccc2s1 [Compound 50]
Output: 762

Task: # get_value(readout= PLM/uPA ratio, system= human plasmin (Homo sapiens)) for N=C(N)c1cc2cc(C=CC3CC3)ccc2s1 [Compound 121, hydrochloride]
Output: 1875

Task: # get_value(readout= PLM/uPA ratio, system= human plasmin (Homo sapiens)) for CCCCCCc1cccc2sc(C(=N)N)cc12.Cl [Compound 13]
Output: 464

Task: # get_value(readout= PLM/uPA ratio, system= human plasmin (Homo sapiens)) for Cl.Cl.N=C(N)c1cc2c(-c3cccnc3)cccc2s1 [Compound 48]
Output: 609

Task: # get_value(readout= PLM/uPA ratio, system= human plasmin (Homo sapiens)) for CCCc1cccc2sc(C(=N)N)cc12.Cl [Compound 9]
Output: 902

Task: # get_value(readout= PLM/uPA ratio, system= human plasmin (Homo sapiens)) for Cl.N=C(N)c1cc2c(/C=C/c3ccco3)cccc2s1 [Compound 67]
Output: 1000
